// provenance: PubChem BioAssay

Test: reversal of MRP1-mediated doxorubicin resistance, pilot screen, H69AR cells, doxorubicin co-treatment (AID 601)
Conditions: H69AR cells + 2 uM doxorubicin, CellTiter-Glo, 72 h; at 10 µM; hits give high values
quantity-measured: differential viability (reversal) (%)
Expressed in %, but write only the number.

// worked examples, differential viability (reversal) included
INSERT INTO results (compound, reported_measurement) VALUES
  ('CC(C)CC(=O)N1CCN(S(=O)(=O)c2ccc(F)cc2)CC1', 9.04),
  ('C1CCN=C(Nc2nc3c(s2)CCCC3)CC1', 7.56),
  ('COC(=O)COc1ccc(C(=O)OC)cc1', 10.4),
  ('O=c1ccn(Cc2ccccc2Cl)cc1', 9.77),
  ('COc1ccc(CN(Cc2cc3cc4c(cc3[nH]c2=O)OCO4)C(=O)NC2CCCCC2)cc1', 0.835),
  ('Cc1ccccc1NC(=O)CSc1nnc(Cc2cccn2C)n1-c1ccc(F)cc1', -1.44),
  ('Nc1nc(SCCOc2ccccc2)n[nH]1', 6.12),
  ('CC(=O)[C@@]1(O)CC[C@H]2[C@@H]3C[C@H](C)C4=CC(=O)C=C[C@]4(C)[C@@]3(F)[C@@H](O)C[C@@]21C', -9.97);

Query: Give its differential viability (reversal) value. Item: COc1ccc(-c2nn3c(-c4cccc(C)c4)nnc3s2)cc1OC
Response: -44

Query: Entry CCc1ccc2[nH]c(=O)c(C(c3nnnn3CC3CCCO3)N3CCCc4ccccc43)cc2c1 (stereo not drawn) : reported differential viability (reversal) = ?
Response: -6.4

Query: Return reported differential viability (reversal); argument: COc1ccccc1N1CCN(CC(O)COc2cccc3ccccc23)CC1 (stereo not drawn)
Response: -13.3

Query: Recorded differential viability (reversal) for CC1(C)S[C@@H]2[C@H](NC(=O)[C@H](N)c3ccccc3)C(=O)N2[C@H]1C(=O)O , please?
Response: 15.6

Query: Look at this compound and give its reported differential viability (reversal). CCOCCCNC(=O)C1CCN(S(=O)(=O)c2c(C)noc2/C=C\c2ccc(OC)cc2)CC1
Response: -0.205

Query: May I ask what differential viability (reversal) has been recorded for COc1ccc(CN2C(=O)c3ccccc3C2C(=O)NC2CCCC2)c(OC)c1 (stereo not drawn) ?
Response: 1.22
